Tested on: HL-60
test_details: NCI-60 cytotoxicity screen
Type: cell-based
assay_context: Homo sapiens, NCI-60, 48 h, leukaemia
Please respond with reported log10(IC50) for every item in the list.
Kindly note that the scale is log10 and the underlying IC50 is in nM.

Lookup: # query: log10(IC50) of entry C=C(CN1CCN(c2ccc(C(F)(F)F)cc2)CC1)c1ccc(C(=O)Nc2ccccc2N)cc1 [Compound 5]
Found: 1.90

Lookup: Which log10(IC50) is listed for C=C(CN1CCN(c2cccc(C(F)(F)F)n2)CC1)c1ccc(C(=O)Nc2ccccc2N)cc1 [Compound 7] ?
Found: 2.51

Lookup: Would you kindly share the measured log10(IC50) for C=C(CN1CCN(c2cccc(C(F)(F)F)c2)CC1)c1ccc(C(=O)Nc2ccccc2N)cc1 [Compound 4] ?
Found: 2.08

Lookup: Recorded log10(IC50) for C=C(CN1CCN(c2ccccc2C(F)(F)F)CC1)c1ccc(C(=O)Nc2ccccc2N)cc1 [Compound 3] , please?
Found: 1.60

Lookup: Given the entry C=C(CN1CCN(c2ccccn2)CC1)c1ccc(C(=O)Nc2ccccc2N)cc1 [Compound 6] , report its measured log10(IC50).
Found: 3.34

Lookup: Given the entry Nc1ccccc1NC(=O)c1ccc(CNC(=O)OCc2cccnc2)cc1 [Compound 1, Entinostat, reference compound] , report its measured log10(IC50).
Found: 2.93

----------
experimental_target: HDAC6 (Homo sapiens)
Sequence (Q9UBN7 whole entry): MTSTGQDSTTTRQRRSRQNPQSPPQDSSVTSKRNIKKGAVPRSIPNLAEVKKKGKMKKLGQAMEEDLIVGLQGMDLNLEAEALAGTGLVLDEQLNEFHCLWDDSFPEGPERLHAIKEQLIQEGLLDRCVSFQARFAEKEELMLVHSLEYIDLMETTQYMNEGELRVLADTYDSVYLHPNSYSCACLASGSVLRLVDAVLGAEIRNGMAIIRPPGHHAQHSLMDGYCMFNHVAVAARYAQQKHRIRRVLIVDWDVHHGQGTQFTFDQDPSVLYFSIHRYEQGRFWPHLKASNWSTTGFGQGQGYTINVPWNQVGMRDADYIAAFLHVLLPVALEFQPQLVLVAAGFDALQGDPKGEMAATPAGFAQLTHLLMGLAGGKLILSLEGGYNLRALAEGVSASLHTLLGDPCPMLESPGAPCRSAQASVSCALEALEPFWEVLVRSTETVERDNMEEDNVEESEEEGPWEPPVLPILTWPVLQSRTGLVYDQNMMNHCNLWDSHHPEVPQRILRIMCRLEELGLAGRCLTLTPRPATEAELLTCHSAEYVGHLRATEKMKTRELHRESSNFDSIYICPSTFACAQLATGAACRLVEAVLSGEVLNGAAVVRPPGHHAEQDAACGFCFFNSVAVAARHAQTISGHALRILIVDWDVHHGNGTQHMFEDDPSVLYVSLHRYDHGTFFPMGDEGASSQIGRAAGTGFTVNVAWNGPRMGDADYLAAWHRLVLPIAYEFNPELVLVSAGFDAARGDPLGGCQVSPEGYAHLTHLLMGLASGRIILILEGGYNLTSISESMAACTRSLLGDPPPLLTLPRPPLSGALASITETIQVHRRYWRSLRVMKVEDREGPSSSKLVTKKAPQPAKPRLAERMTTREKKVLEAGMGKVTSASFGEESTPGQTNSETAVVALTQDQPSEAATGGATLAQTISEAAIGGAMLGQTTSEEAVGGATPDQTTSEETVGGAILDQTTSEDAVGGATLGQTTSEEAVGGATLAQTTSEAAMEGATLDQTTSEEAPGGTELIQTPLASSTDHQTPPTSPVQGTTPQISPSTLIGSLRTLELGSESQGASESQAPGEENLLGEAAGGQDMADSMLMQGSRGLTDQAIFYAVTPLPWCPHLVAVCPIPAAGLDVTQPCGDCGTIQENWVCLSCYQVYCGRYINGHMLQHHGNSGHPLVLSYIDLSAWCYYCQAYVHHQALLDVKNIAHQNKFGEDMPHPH
test_details: Inhibition of individual recombinant KDACs
property: IC50

Lookup: Fill in: IC50 of C=C(CN1CCN(c2cccc(C(F)(F)F)n2)CC1)c1ccc(C(=O)Nc2ccccc2N)cc1 [Compound 7] is ___
Found: > 10 µM

----------
Test system: HOP-92
test_details: NCI-60 cytotoxicity screen
Format: cell-based
assay_context: Homo sapiens, NCI-60, 48 h, NSCLC
Description: Compounds 3–7 were submitted to the US National Cancer Institute (NIH, Bethesda, Maryland) for screening against the NCI-60 panel of human cancer cell lines, as per standard protocol.
pIC50: −log10 of the molar value.
We use 6 as the dividing line for pIC50: on or above the line is Condition met, below is Condition not met.

Lookup: Assess whether reported pIC50 for C=C(CN1CCN(c2ccc(C(F)(F)F)cc2)CC1)c1ccc(C(=O)Nc2ccccc2N)cc1 sits at 6 or higher.
Found: Condition not met

Lookup: Textbook exercise: given the entry C=C(CN1CCN(c2ccccn2)CC1)c1ccc(C(=O)Nc2ccccc2N)cc1 , state whether its pIC50 is greater than or equal to 6.
Found: Condition not met

Lookup: Does Nc1ccccc1NC(=O)c1ccc(CNC(=O)OCc2cccnc2)cc1 [Compound 1, Entinostat, reference compound] have a reported pIC50 of at least 6?
Found: Condition met

Lookup: Item C=C(CN1CCN(c2ccccc2C(F)(F)F)CC1)c1ccc(C(=O)Nc2ccccc2N)cc1 with pIC50 of 6 or above?
Found: Condition not met

----------
experimental_target: HDAC5 (Homo sapiens, UniProt Q9UQL6)
Sequence (Q9UQL6 whole entry): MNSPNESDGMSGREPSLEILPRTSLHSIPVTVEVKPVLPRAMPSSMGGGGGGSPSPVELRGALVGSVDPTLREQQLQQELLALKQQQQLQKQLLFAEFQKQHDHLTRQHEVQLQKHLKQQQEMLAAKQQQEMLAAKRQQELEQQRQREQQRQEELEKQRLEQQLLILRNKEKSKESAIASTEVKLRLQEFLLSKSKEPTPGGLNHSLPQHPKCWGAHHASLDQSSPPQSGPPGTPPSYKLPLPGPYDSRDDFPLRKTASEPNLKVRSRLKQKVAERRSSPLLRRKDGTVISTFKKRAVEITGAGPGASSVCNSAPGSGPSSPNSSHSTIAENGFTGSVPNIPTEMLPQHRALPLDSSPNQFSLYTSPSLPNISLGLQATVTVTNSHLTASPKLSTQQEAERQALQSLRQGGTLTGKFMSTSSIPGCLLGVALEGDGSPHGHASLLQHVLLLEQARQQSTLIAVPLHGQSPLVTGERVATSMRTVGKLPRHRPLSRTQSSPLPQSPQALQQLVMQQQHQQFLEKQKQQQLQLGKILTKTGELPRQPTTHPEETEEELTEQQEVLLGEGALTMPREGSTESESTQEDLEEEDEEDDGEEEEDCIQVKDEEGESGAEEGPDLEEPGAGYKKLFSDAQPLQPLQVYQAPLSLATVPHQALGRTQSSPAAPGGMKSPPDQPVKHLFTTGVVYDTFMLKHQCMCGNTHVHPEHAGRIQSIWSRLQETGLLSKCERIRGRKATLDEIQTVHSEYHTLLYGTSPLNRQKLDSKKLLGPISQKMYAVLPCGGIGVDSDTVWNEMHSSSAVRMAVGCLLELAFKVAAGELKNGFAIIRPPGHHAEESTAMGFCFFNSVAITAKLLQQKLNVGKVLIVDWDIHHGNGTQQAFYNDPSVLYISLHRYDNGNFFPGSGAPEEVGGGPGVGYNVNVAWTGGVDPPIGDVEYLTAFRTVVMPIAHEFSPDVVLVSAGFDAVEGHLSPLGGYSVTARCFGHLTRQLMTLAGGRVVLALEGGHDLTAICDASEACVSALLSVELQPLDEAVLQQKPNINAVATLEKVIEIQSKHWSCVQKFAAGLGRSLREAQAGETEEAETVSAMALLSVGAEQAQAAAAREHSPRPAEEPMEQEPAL
test_details: Inhibition of individual recombinant KDACs
property: IC50

Lookup: Which IC50 value belongs to C=C(CN1CCN(c2cccc(C(F)(F)F)n2)CC1)c1ccc(C(=O)Nc2ccccc2N)cc1 [Compound 7] ?
Found: > 10 µM

----------
Test system: COLO205
test_details: NCI-60 cytotoxicity screen
Type: cell-based
assay_context: Homo sapiens, COLO 205; NCI-60, 48 h, colon
// NB: equality with 3 µM counts as F; only IC50 strictly below is T

Lookup: Say whether its IC50 is strictly beneath 3 µM. Entry: C=C(CN1CCN(c2cccc(C(F)(F)F)c2)CC1)c1ccc(C(=O)Nc2ccccc2N)cc1 [Compound 4]
Found: F

Lookup: Identify whether the compound C=C(CN1CCN(c2cccc(C(F)(F)F)n2)CC1)c1ccc(C(=O)Nc2ccccc2N)cc1 [Compound 7] records IC50 below 3 µM.
Found: F

Lookup: Check if IC50 falls below 3 µM for C=C(CN1CCN(c2ccccc2C(F)(F)F)CC1)c1ccc(C(=O)Nc2ccccc2N)cc1 [Compound 3] .
Found: F

Lookup: Consider the compound C=C(CN1CCN(c2ccccn2)CC1)c1ccc(C(=O)Nc2ccccc2N)cc1 [Compound 6] . Is its IC50 strictly less than 3 µM?
Found: T

Lookup: Is 3 µM strictly greater than the compound's reported IC50? compound: Nc1ccccc1NC(=O)c1ccc(CNC(=O)OCc2cccnc2)cc1 [Compound 1, Entinostat, reference compound]
Found: T

Lookup: Just wondering, is IC50 of C=C(CN1CCN(c2ccc(C(F)(F)F)cc2)CC1)c1ccc(C(=O)Nc2ccccc2N)cc1 [Compound 5] below 3 µM?
Found: F

Value source: paper PMC12217109
